Where these numbers come from: patent US20210253725A1

Biological target: T1, CD27 expressed on the cell surface of HT1080_CD27 cells (human, UniProt P26842 20-260)
T1 construct: whole, on cells; species not restated for the HT1080 transfectant
T1 sequence (looked up): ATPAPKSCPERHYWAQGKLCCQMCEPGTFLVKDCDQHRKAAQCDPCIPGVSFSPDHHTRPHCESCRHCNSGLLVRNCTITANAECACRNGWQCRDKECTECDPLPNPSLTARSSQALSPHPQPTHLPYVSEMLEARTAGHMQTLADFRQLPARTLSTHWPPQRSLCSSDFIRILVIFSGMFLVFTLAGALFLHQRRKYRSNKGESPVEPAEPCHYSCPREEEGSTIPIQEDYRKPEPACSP
Test: HT1080_CD27 cells, imaging; also: test concentration or dose not given here
Below, each entry is listed with its recorded Cellular binding assay [RFU].
Express the result in RFU but write the number alone.

# annotated cases, reported Cellular binding assay [RFU] shown
P018.S.09.A.E02 (antibody, V domains shown, V regions on human Ig constant parts; also called AB27_153) VH: QSLEESGGRLVTPGTPLTLTCTASGFTISSHHMTWVRQAPGEGLEWLGVIFPSGHTYYTSWAKGRFTISRTSTTVDLKMASLTIEDTATYFCVRDVGYFTLWGQGTLVTVSS VL: AQVLTQTPSPVSAAVGGTVTISCQSSESVGGNNWLAWYQQKLGQPPKLLIYGASTLASGVPSRFSGSGSGTQFTLTISEVQSDDAATYYCQGYYSDVTNAFGGGTEVVVE | 305
P018.S.09.A.A06 (antibody, V domains shown, V regions on human Ig constant parts; also called AB27_146) VH: QEQLKESGGGLVQPGESLTLTCTASGFSLSSYYMSWVRQAPGKGLEWIGMISTGGSAYYANWARGRFTISRTSTTVDLKVTSLTTEDTATYFCARGWRYEDLWGQGTLVTVSS VL: AQVLTQTPSPVSAAVGSTVTINCQSSQTVYNNNYLAWYQQKPGQPPKLLIYDASNLASGVSSRFSGSGSGTQFTLTISDLESDDAATYYCQGTYYDNAWYHTFGGGTEVVVK | 113

Please turn your attention to the following entry.
Prompt line: Suppose we examine the binder P018.S.10.A.B03 (antibody, V domains shown, V regions on human Ig constant parts; also called AB27_168) VH: QSLEESGGRLVTPGTPLTLTCTASGFSLSSYDMGWVRQAPGKGLEWIGIISSSGSTYYASWAKGRFTISKTSSTTVDLKMTSLTTEDTATYFCARTSLDGNLWGQGTLVTVSS VL: AFEMTQTPSSVSEPVGGTVTIKCQASQSIYNYLSWYQQKPGQPPKLLIYDASALASGVPSRFKGSGSGTDFTLTISDLESADAATYYCQQDYSVSDVDNSFGGGTEVVVK ; what Cellular binding assay [RFU] value has been reported?
Response line: 19
